Provenance of the data: paper PMC5540273

system: ERK4; construct: gene MAPK4; conditions: concentration: 1 μM, replicates: in singlicate; n = 1;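 further: KINOMEscan kinase panel screen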
Measured %Inh by item
measure-name: %Inh (%)

>>> observed("O=c1cc(N2CCOCC2)nc2n(Cc3cccc(Cl)c3Cl)c(C3CC3)nn12 [GSK2358994]")
0
>>> observed("O=C1Cc2cc(Nc3nc(NCc4cccc(S(=O)(=O)C(F)(F)F)c4)ncc3C(F)(F)F)ccc2N1")
25
>>> observed("COc1cc2c(cc1OCCN1CCN(C)CC1)ncc1c3ccc(C#N)cc3[nH]c21")
10
>>> observed("CN1c2ccc(CNc3ccc(F)cc3)cc2-c2c(cnn2C)S1(=O)=O")
0
>>> observed("COc1ccc(Nc2nccc(N3CCC(NC(=O)Nc4cc(C)ccc4C)C3)n2)cc1 (stereo not shown) [GSK1379741]")
1
>>> observed("c1ccc(-c2cc(-c3c[nH]nc3-c3ccccn3)ccn2)cc1 [GW576604]")
3
>>> observed("COc1cc2c(cc1OC[C@@H](O)CO)ncc1c3ccc(C#N)cc3[nH]c21")
7
>>> observed("O=c1cc(N2CCOCC2)nc2n(Cc3cccc(C(F)(F)F)c3)ccn12 [GSK2297543]")
12
>>> observed("COc1ccc(Nc2nccc(N3CCC(NC(=O)Nc4cccc(C(C)=O)c4)C3)n2)cc1 (stereo not shown) [GSK1379731]")
0
>>> observed("NS(=O)(=O)c1cccc(-c2ccc3ncc(N4CCOCC4)nc3c2)c1 [GSK1535721]")
0
>>> observed("Cc1cccc(-c2nc(Nc3ccc4ncsc4c3)c3ccccc3n2)n1 [GW867588]")
0
>>> observed("CN(C1=C(c2ccccc2)C(=O)NC1=O)c1ccccc1 [SB-334860]")
44
>>> observed("COCCNC(=O)c1ccc(-c2cc(C(=O)NC3CC3)cc(F)c2C)cc1 [GW868318]")
8
>>> observed("Cl.Oc1cccc(Nc2ccnc3cc(-c4ccncc4)ccc23)c1 [GW494601]")
26
>>> observed("c1ccc(-c2n[nH]cc2-c2ccnc3ccccc23)nc1 [GW271431]")
11
>>> observed("CCCCCc1nc2c(N)ncnc2n1CCCCC [SKF-97255]")
0
